- TARGET: TBK1 (Homo sapiens)
- Construct: TBK1 and IKKε were expressed and purified as full length recombinant proteins
- Sequence (Q9UHD2 whole entry): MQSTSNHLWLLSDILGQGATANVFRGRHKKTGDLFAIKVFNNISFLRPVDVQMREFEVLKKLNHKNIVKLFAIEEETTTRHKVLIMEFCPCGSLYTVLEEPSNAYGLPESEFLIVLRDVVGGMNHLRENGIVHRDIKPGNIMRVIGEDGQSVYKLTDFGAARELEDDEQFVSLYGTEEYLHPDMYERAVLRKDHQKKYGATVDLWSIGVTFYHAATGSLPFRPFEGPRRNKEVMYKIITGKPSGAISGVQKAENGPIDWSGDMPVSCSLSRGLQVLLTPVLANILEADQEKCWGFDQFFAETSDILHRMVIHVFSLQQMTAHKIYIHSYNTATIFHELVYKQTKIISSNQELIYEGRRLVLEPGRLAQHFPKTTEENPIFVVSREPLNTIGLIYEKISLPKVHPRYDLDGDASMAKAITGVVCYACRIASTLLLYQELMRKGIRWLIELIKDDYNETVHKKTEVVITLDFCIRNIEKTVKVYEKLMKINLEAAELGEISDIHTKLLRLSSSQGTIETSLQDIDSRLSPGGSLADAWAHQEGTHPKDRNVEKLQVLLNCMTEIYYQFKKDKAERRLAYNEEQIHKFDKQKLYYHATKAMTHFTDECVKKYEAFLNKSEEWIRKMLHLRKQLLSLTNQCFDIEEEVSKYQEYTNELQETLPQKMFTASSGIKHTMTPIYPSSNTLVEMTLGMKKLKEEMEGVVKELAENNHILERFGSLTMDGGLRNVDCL
- RUN_DESCRIPTION: TR-FRET enzymatic activity assay, TBK1; note: full length recombinant TBK1 at 2.5 nM
- Protocol: Biological Assay for TBK1 and IKKε: Enzymatic activity of IKKε and TBK1 was measured using a homogeneous time resolved fluorescence resonance energy transfer (TR-FRET) assay that monitors enzyme dependent phosphorylation of a biotinylated serine/threonine peptide substrate. An increase in the amount of phosphorylated peptide results in an increase in TR-FRET signal. TBK1 and IKKε were expressed and purified as full length recombinant proteins. […]
pIC50: −log10 of the molar value.

MOLECULE	RELATION_OPERATOR	pIC50
CN(C)C(=O)[C@@H]1C[C@@H]1C(=O)Nc1cc(-c2ccc(O[C@H]3CCN(C(=O)CO)C[C@H]3F)c(C#N)c2)ccn1 [Example 79]	<	6.00
N#Cc1cc(-c2ccnc(NC(=O)C3CC3c3nc[nH]n3)c2)ccc1O[C@H]1CCN(C(=O)CO)C[C@H]1F (stereo partly drawn) [Example 76]	=	6.59
Cn1cc([C@@H]2C[C@H]2C(=O)Nc2cc(-c3ccc(O[C@H]4CCN(C(=O)CO)CC4(F)F)c(C#N)c3)ncn2)cn1 [Example 128]	=	8.14

----------
- TARGET: TBK1 (Homo sapiens)
- Construct: TBK1 and IKKε were expressed and purified as full length recombinant proteins
- RUN_DESCRIPTION: TR-FRET enzymatic activity assay, TBK1; note: full length recombinant TBK1 at 2.5 nM
pIC50: −log10 of the molar value.
Parameter: pIC50. Scope: all listed entries.

COMPOUND	RELATION_OPERATOR	pIC50
Cc1n[nH]c(C(=O)N2CC[C@H](Oc3ccc(-c4cc(NC(=O)C5CC5)ncn4)cc3C#N)C(F)(F)C2)n1 [Example 34]	=	8.38
N#Cc1cc(-c2ccnc(NC(=O)C3CC3)c2)ccc1N1CCC[C@H]1C(=O)O [Example 26]	=	6.12
Cn1cnc(C2CC2C(=O)Nc2cc(-c3ccc(O[C@H]4CCN(C(=O)CO)C[C@H]4F)c(C#N)c3)ccn2)n1 (stereo partly drawn) [Example 145]	<	6.00
N#CCC(=O)N1CC[C@H](Oc2ccc(-c3ccnc(NC(=O)C4CC4)c3)cc2C#N)C(F)(F)C1 [Example 13]	=	7.91
N#Cc1cc(-c2ccnc(NC(=O)[C@@H]3C[C@H]3c3ccco3)c2)ccc1OC1CCOCC1 (relative stereo) [Example 150]	=	7.15
Cn1cc([C@@H]2C[C@H]2C(=O)Nc2cc(-c3ccc(O[C@H]4CCN(C(=O)CO)C[C@H]4F)c(C#N)c3)ccn2)cn1 (single isomer, unassigned) [Example 125]	=	7.72
N#Cc1cc(-c2ccnc(NC(=O)[C@H]3C[C@@H]3c3cccc(F)c3)c2)ccc1OC1CCOCC1 (relative stereo) [Example 119]	=	7.00
N#Cc1cc(-c2ccnc(NC(=O)C3CC3)c2)ccc1N1CC[C@H](O)C1 [Example 16]	=	7.28
Cc1noc([C@@H]2C[C@H]2C(=O)Nc2cc(-c3ccc(OC4CCOCC4)c(C#N)c3)ccn2)n1 [Example 108]	=	6.73
Cc1n[nH]c(C(=O)N2CC[C@H](Oc3ccc(-c4ccnc(NC(=O)C5CC5C)c4)cc3C#N)[C@H](F)C2)n1 (stereo partly drawn) [Example 75]	=	8.21
Cn1cc([C@@H]2C[C@H]2C(=O)Nc2cc(-c3ccc(O[C@H]4CCN(C(=O)CO)C[C@H]4F)c(C#N)c3)ncn2)cn1 [Example 143]	=	7.70
CC(=O)OC1(C(=O)Nc2cc(-c3ccc(OC4CCOCC4)c(C#N)c3)ccn2)CC1 [Example 37]	<	6.00
N#Cc1cc(-c2ccnc(NC(=O)C3CC34CCOC4)c2)ccc1OC1CCOCC1 (stereo not drawn) [Example 117]	=	6.07
N#Cc1cc(-c2ccnc(NC(=O)C3CCC3)c2)ccc1OC1CCOCC1 [Example 3]	=	6.48
CO[C@H]1CCN(c2ccc(-c3ccnc(NC(=O)C4CC4)c3)cc2C#N)C1 [Example 94]	=	6.92
